assay_system: Acetylcholinesterase (Homo sapiens, UniProt P22303)
Sequence (P22303 whole entry): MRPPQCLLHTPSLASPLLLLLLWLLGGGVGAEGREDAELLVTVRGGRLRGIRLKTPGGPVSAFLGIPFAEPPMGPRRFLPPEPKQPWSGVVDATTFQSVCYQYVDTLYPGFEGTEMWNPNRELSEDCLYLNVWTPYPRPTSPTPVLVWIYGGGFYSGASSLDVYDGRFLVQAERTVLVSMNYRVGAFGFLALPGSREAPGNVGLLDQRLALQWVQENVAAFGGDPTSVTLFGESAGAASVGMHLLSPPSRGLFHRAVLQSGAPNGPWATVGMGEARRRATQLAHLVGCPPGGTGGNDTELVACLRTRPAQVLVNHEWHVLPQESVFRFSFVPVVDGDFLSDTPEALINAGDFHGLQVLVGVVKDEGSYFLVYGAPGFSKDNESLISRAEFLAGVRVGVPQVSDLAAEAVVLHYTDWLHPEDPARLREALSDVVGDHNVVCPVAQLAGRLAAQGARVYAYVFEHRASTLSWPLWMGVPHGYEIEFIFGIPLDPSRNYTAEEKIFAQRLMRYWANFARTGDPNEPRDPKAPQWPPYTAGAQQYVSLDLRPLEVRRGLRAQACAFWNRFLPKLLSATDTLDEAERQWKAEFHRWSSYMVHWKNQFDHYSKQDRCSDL
IC50 under 2000 nM gets yes (1), anything at or over 2000 nM gets no (0).

- structure_string: "CCCCCCCNC(=O)Oc1ccc(Cc2nc3cc(C(=O)N(CC)CC)ccc3n2CCC(C)C)cc1"
  assigned_class: "yes (1)"
- structure_string: "CCCCCCCNC(=O)Oc1ccc(Cc2nc3cc(C(=O)N4CCCCC4)ccc3n2CCC(C)C)cc1"
  assigned_class: "yes (1)"
- structure_string: "CCN(CC)C(=O)c1ccc2c(c1)nc(Cc1ccc(OC(=O)N3CCC3)cc1)n2CCC(C)C"
  assigned_class: "yes (1)"
- structure_string: "CCN(CC)C(=O)c1ccc2c(c1)nc(Cc1ccc(OC(=O)NCCCCCCN3CCc4ccccc4C3)cc1)n2CCC(C)C"
  assigned_class: "no (0)"
- structure_string: "CCCCCCCNC(=O)Oc1ccc(Cc2nc3cc(C(=O)N(CC)CC)ccc3n2CCCCN2CCCCC2)cc1"
  assigned_class: "no (0)"
